Tested on: HepG2
procedure-summary: Antiproliferative activity against human HepG2 cells assessed as cell growth inhibition after 72 hrs by MTT assay
Format: functional, cell-based
conditions-used: HepG2, 72 h
For each of the molecules below, state its log10(IC50).
Log scale reminder: IC50 in nM, then log10 taken.

These solved cases illustrate the format of a correct answer.
CC(C)(C)n1cc2c(n1)C(=O)CC1(CCN(C(=O)c3ccc4[nH]ncc4c3)CC1)O2	3.27
CN1CCN(c2cc(C(=O)N3CCC4(CC3)CC(=O)c3nn(C(C)(C)C)cc3O4)c3ccccc3n2)CC1	3.98
CC(C)Oc1cc(C(=O)N2CCC3(CC2)CC(=O)c2nn(C(C)(C)C)cc2O3)c2ccccc2n1	3.50
CC(C)(C)n1cc2c(n1)C(=O)CC1(CCN(C(=O)c3cc(-c4ccccc4)nc4ccccc34)CC1)O2	3.32
CN(C)c1ccc(-c2cc(C(=O)N3CCC4(CC3)CC(=O)c3nn(C(C)(C)C)cc3O4)c3ccccc3n2)cc1	3.24

For the 2 molecules below, give their log10(IC50) values.
1. CC(C)(C)n1cc2c(n1)C(=O)CC1(CCN(C(=O)c3cc(-c4ccc(Cl)cc4)nc4ccccc34)CC1)O2
2. CC(C)(C)n1cc2c(n1)C(=O)CC1(CCN(C(=O)c3cc(Cl)nc4ccccc34)CC1)O2

1: 2.80; 2: 3.67

###

measurement-target: Acetyl-CoA carboxylase 1 (Homo sapiens, UniProt Q13085)
procedure-summary: Inhibition of recombinant human C-terminal His-tagged ACC1 (1 to 2383 residues) expressed in baculovirus infected Sf9 insect cells at 0.1 uM preincubated for 15 mins followed by substrate addition and measured after 60 mins by ADP-glo luminescence assay relative to control
Label fulfilled when inhibition is at or above 50%; anything below gets not fulfilled.

Use the examples below as a reference point.
CN1CCN(c2cc(C(=O)N3CCC4(CC3)CC(=O)c3nn(C(C)(C)C)cc3O4)c3ccccc3n2)CC1	fulfilled
CC(C)(C)n1cc2c(n1)C(=O)CC1(CCN(C(=O)c3cc(N4CCNCC4)nc4ccccc34)CC1)O2	fulfilled
CC(C)(C)n1cc2c(n1)C(=O)CC1(CCN(C(=O)c3cc(Cl)nc4ccccc34)CC1)O2	fulfilled
COc1cc(C(=O)N2CCC3(CC2)CC(=O)c2nn(C(C)(C)C)cc2O3)c2ccccc2n1	not fulfilled

From here, focus on the item given below.
hey, is inhibition for this one >= 50%? Cc1ccccc1-c1cc(C(=O)N2CCC3(CC2)CC(=O)c2nn(C(C)(C)C)cc2O3)c2ccccc2n1
not fulfilled

###

For each of the compounds below, state its pIC50.
measurement-target: Acetyl-CoA carboxylase 1 (Homo sapiens)
procedure-summary: Inhibition of recombinant human C-terminal His-tagged ACC1 (1 to 2383 residues) expressed in baculovirus infected Sf9 insect cells preincubated for 15 mins followed by substrate addition and measured after 60 mins by ADP-glo luminescence assay
Answers are plain numbers, as −log10 of the molar value.

These solved cases illustrate the format of a correct answer.
Cc1ccc(-c2cc(C(=O)N3CCC4(CC3)CC(=O)c3nn(C(C)(C)C)cc3O4)c3ccccc3n2)cc1	8.65
CC(C)(C)n1cc2c(n1)C(=O)CC1(CCN(C(=O)c3cc(-c4ccncc4)nc4ccccc34)CC1)O2	7.95

We next turn to a different compound, shown below.
Report measured pIC50; entry is CC(C)(C)n1cc2c(n1)C(=O)CC1(CCN(C(=O)c3cc(-c4ccc(N)cc4)nc4ccccc34)CC1)O2
8.89

###

For each of the compounds below, state its viability at 72 h, 100 µM.
procedure-summary: Cytotoxicity against HUVEC assessed as cell viability at 100 uM after 72 hrs by MTT assay relative to control
Assay type: cell-based
conditions-used: human, HUVEC cells, read-out: Activity
Numbers only, in %.

Cc1ccccc1-c1cc(C(=O)N2CCC3(CC2)CC(=O)c2nn(C(C)(C)C)cc2O3)c2ccccc2n1	38.6
CC(C)(C)n1cc2c(n1)C(=O)CC1(CCN(C(=O)c3cc(N4CCOCC4)nc4ccccc34)CC1)O2	34.4
COc1ccc(-c2cc(C(=O)N3CCC4(CC3)CC(=O)c3nn(C(C)(C)C)cc3O4)c3ccccc3n2)cc1	102
CC(C)(C)n1cc2c(n1)C(=O)CC1(CCN(C(=O)c3cc(-c4ccccn4)nc4ccccc34)CC1)O2	104
CC(C)(C)n1cc2c(n1)C(=O)CC1(CCN(C(=O)c3cc(N4CCNCC4)nc4ccccc34)CC1)O2	102

For the 2 compounds below, give their viability at 72 h, 100 µM values.
1. CC(C)(C)n1cc2c(n1)C(=O)CC1(CCN(C(=O)c3cc(-c4ccccc4)nc4ccccc34)CC1)O2
2. Cc1cc(C(=O)N2CCC3(CC2)CC(=O)c2nn(C(C)(C)C)cc2O3)c2ccccc2n1

[97.3, 101]

###

measurement-target: Acetyl-CoA carboxylase 1 (Homo sapiens, UniProt Q13085)
procedure-summary: Inhibition of recombinant human C-terminal His-tagged ACC1 (1 to 2383 residues) expressed in baculovirus infected Sf9 insect cells preincubated for 15 mins followed by substrate addition and measured after 60 mins by ADP-glo luminescence assay
test-readout: pIC50
Numbers only, as −log10 of the molar value.

For the 6 compounds below, give their pIC50 values.
1. COc1ccc(-c2cc(C(=O)N3CCC4(CC3)CC(=O)c3nn(C(C)(C)C)cc3O4)c3ccccc3n2)cc1
2. CN(C)c1ccc(-c2cc(C(=O)N3CCC4(CC3)CC(=O)c3nn(C(C)(C)C)cc3O4)c3ccccc3n2)cc1
3. COc1ccc(-c2cc(C(=O)N3CCC4(CC3)CC(=O)c3nn(C(C)(C)C)cc3O4)c3ccccc3n2)cc1OC
4. CC(C)(C)n1cc2c(n1)C(=O)CC1(CCN(C(=O)c3cc(-c4ccccn4)nc4ccccc34)CC1)O2
5. COc1ccccc1[C@H](Cn1c(=O)n(C(C)(C)C(=O)O)c(=O)c2c(C)c(-c3ncco3)sc21)OC1CCOCC1
6. CC(C)(C)n1cc2c(n1)C(=O)CC1(CCN(C(=O)c3cc(-c4ccccc4)nc4ccccc34)CC1)O2

[8.50, 8.57, 8.45, 7.86, 8.36, 8.22]

For the 2 compounds below, give their pIC50 values.
1. CC(C)(C)n1cc2c(n1)C(=O)CC1(CCN(C(=O)c3cc(-c4ccc(Cl)cc4)nc4ccccc34)CC1)O2
2. CC(C)(C)n1cc2c(n1)C(=O)CC1(CCN(C(=O)c3cc(-c4ccc(Br)cc4)nc4ccccc34)CC1)O2

1. 8.22
2. 8.25

Report its pIC50 with Acetyl-CoA carboxylase 1 (Homo sapiens, UniProt Q13085) as the test system: CC(C)(C)n1cc2c(n1)C(=O)CC1(CCN(C(=O)c3cc(-c4ccc(F)cc4)nc4ccccc34)CC1)O2
8.03

###

measurement-target: Acetyl-CoA carboxylase 1 (Homo sapiens)
procedure-summary: Inhibition of recombinant human C-terminal His-tagged ACC1 (1 to 2383 residues) expressed in baculovirus infected Sf9 insect cells at 0.1 uM preincubated for 15 mins followed by substrate addition and measured after 60 mins by ADP-glo luminescence assay relative to control
For each of the compounds below, state its inhibition.
Numbers only, in %.

These solved cases illustrate the format of a correct answer.
CC(C)(C)n1cc2c(n1)C(=O)CC1(CCN(C(=O)c3cc(-c4ccccc4)nc4ccccc34)CC1)O2	90.5
CC(C)(C)n1cc2c(n1)C(=O)CC1(CCN(C(=O)c3cc(-c4ccc(Cl)cc4)nc4ccccc34)CC1)O2	93.2
CC(C)(C)n1cc2c(n1)C(=O)CC1(CCN(C(=O)c3cc(-c4ccccc4Cl)nc4ccccc34)CC1)O2	43.6
CN(C)c1ccc(-c2cc(C(=O)N3CCC4(CC3)CC(=O)c3nn(C(C)(C)C)cc3O4)c3ccccc3n2)cc1	96.4

For the 2 compounds below, give their inhibition values.
1. CC(C)(C)n1cc2c(n1)C(=O)CC1(CCN(C(=O)c3cc(-c4ccncc4)nc4ccccc34)CC1)O2
2. CC(C)Oc1cc(C(=O)N2CCC3(CC2)CC(=O)c2nn(C(C)(C)C)cc2O3)c2ccccc2n1

86.2
68

###

Test system: HepG2
procedure-summary: Antiproliferative activity against human HepG2 cells assessed as cell growth inhibition after 72 hrs by MTT assay
Format: functional, cell-based
conditions-used: HepG2, 72 h
pIC50: −log10 of the molar value.
test-readout: pIC50

COc1cc(C(=O)N2CCC3(CC2)CC(=O)c2nn(C(C)(C)C)cc2O3)c2ccccc2n1	< 5.00

For the 2 compounds below, give their pIC50 values.
1. CC(C)(C)n1cc2c(n1)C(=O)CC1(CCN(C(=O)c3cc(-c4ccccc4Cl)nc4ccccc34)CC1)O2
2. Cc1ccccc1-c1cc(C(=O)N2CCC3(CC2)CC(=O)c2nn(C(C)(C)C)cc2O3)c2ccccc2n1

< 5.00
< 5.00

###

measurement-target: Acetyl-CoA carboxylase 1 (Homo sapiens)
procedure-summary: Inhibition of recombinant human C-terminal His-tagged ACC1 (1 to 2383 residues) expressed in baculovirus infected Sf9 insect cells preincubated for 15 mins followed by substrate addition and measured after 60 mins by ADP-glo luminescence assay
For each of the molecules below, state its IC50.

These solved cases illustrate the format of a correct answer.
CC(C)(C)n1cc2c(n1)C(=O)CC1(CCN(C(=O)c3cc(Cl)nc4ccccc34)CC1)O2	> 20 nM
Cc1cc(C(=O)N2CCC3(CC2)CC(=O)c2nn(C(C)(C)C)cc2O3)c2ccccc2n1	> 20 nM

Report measured IC50; entry is CCOc1cc(C(=O)N2CCC3(CC2)CC(=O)c2nn(C(C)(C)C)cc2O3)c2ccccc2n1
> 100 nM
